Target chain: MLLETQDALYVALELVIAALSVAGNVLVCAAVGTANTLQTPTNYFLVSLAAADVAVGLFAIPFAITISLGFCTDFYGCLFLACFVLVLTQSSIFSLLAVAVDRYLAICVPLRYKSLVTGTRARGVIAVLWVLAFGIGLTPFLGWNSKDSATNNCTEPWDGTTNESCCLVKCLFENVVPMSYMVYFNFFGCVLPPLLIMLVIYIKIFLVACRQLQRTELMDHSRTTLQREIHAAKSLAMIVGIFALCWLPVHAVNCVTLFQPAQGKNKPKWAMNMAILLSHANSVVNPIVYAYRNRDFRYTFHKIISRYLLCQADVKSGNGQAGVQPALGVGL
parameterMeasured: IC50

{"compoundStructureString": "O=C(c1nc(NCc2ccc(F)cn2)nc2ccsc12)N1CC[C@H](O)C1", "observed": "> 500 nM"}

Proceeding to the next molecule to report its IC50.
# input For the molecule "CC(C)(C)OC(=O)N1CCC[C@@H]1CNC(=O)c1nc(NCc2cncc(F)c2)nc2ccsc12" , what IC50 is on record?
# output > 500 nM

Data provenance is ChEMBL document CHEMBL5728996.
